Measured values drawn from patent US10683553B2 for this set.

System: SW620 colon cancer cell line
Assay: MTS cell viability / IC50
Type: cell-based
Settings: Homo sapiens, SW-620; SW620 (p53mt/LIG4wt); MTS, 72 hours
Value kind: IC50

N#Cc1ccc(N2CCN(Cc3ccc4c5c(c(=O)[nH]c4c3)CCCN5)CC2)nc1 [Compound B] has a reported IC50 of > 100 µM

* * *

System: KM12C colon cancer cell line
Assay: MTS cell viability / IC50
Format: cell-based, human
Details: KM12C (p53mt/LIG4mt); MTS, 72 hours
Value kind: IC50

Sure, the documented IC50 for CCOc1cc(CN(C)C)cc2[nH]c(=O)c3c(c12)NCCC3 [Compound A] is > 100 µM
